# system: T1, Activin A (human, UniProt P08476 311-426)
# T1 sequence: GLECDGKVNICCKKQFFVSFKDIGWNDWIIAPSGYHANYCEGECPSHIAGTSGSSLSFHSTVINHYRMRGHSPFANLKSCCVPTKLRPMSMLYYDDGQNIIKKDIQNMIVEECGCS
# method.summary: cell-based or functional assay
Recorded IC50, inhibition of 100 pM Activin A in A204/CAGAx12-Luc luciferase bioassay by entry
outcome.measure: IC50, inhibition of 100 pM Activin A in A204/CAGAx12-Luc luciferase bioassay (M)

{"binder": "H4H10426P (antibody, human IgG4, V domains shown) VH: EVQLVESGGNLVQSGRSLRLSCTASGFAFDDFAMHWVRQVPGKGLEWVSGISWNSDTIGYADSVKGRFTISRDNAQNSLFLQMDSLRAEDTALYYCVKDMVRGLIGYYYYGMDVWGQGTTVTVSS VL: EIVLTQSPAILSLSPGERAILSCRASQSIYTYLSWYQQTPGRAPRLLIYETSSRATGIPARFIGSGSGTDFTLTISSLEPEDFAFYYCQHRSDWPPTFGQGTKLEIK", "test.value": "2.3e-10"}
{"binder": "H4H10430P (antibody, human IgG4, V domains shown, also called mAb1) VH: EVQLVESGGGLVQPGRSLRLSCKASGFAFDDFAMHWVRQAPGKGLEWVSGIVWNSGDIGYADSVKGRFTISRDNAKNSLYLQLNSLRTEDTALYFCVKDMVRGLMGFNYYGMDVWGQGTTVTVSS VL: EIVLTQSPATLSLSPGERATLSCRASQTISTYLVWYRQRPGQAPSLLIYDASNRATDIPARFSGSGSGTDFTLTISSLEPEDFAVYYCQQRSNWPITFGQGTRLEIK", "test.value": "6.1e-11"}
{"binder": "H4H10424P (antibody, human IgG4, V domains shown) VH: QVQLVESGGGVVQPGRSLRLSCAASGFTFSSYGMHWVRQAPGKGLEWVAVIWYDGSNKYNADSVKGRFTISRDNSKNTVYLQMNSLRAEDTAVYYCARARNYDILTGYYNLGMDVWGQGTTVTVSS VL: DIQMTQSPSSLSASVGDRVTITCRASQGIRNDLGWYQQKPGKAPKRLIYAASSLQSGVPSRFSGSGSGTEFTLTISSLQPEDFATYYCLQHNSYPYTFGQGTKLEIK", "test.value": "7.6e-10"}
{"binder": "H4H10429P (antibody, human IgG4, V domains shown) VH: QVQLVESGGGVVQPGRSLRLSCVASGFTVSSYGIHWVRQAPGKGLEWVSVIWYDGRNKDYADSVKGRFTISRDNSKNTVYLEMKGLRAEDTALYYCARDKTGDFDSWGQGTLVTVSS VL: DIQMTQSPSSLSASVGDRVTITCRASQNINSFLSWYQQKPGKAPKFLIYDASSIQSGAPSRFSGSGSGTDFTLTISSLQPEDFATYYCQQSYSSPFTFGQGTKLEIK", "test.value": "1.6e-10"}
